Can you tell me cAMP EC50 for the items I'm about to list?
molecular target: hMC4-R (human) (UniProt P32245); experiment: cell-based or functional assay
Sequence (P32245 whole entry): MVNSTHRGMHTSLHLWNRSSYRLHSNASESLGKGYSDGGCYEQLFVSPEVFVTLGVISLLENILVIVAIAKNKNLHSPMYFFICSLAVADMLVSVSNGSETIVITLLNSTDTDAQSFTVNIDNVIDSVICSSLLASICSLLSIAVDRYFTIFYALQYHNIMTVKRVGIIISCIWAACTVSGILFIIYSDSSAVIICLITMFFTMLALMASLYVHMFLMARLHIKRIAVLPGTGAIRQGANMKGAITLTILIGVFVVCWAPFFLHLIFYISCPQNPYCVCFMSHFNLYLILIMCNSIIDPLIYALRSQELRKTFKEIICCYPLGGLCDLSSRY
Bridge positions count the residues as written; N and C are the ends. Square brackets hold non-standard residues; d marks the D form. Ends that are not written are not given here. Orn = NCCC[C@H](N)C(=O)O; Dap = NC[C@H](N)C(=O)O; βAla = NCCC(=O)O
The answer is to be given in nM; state only the numeric part.

[in] Look up cAMP EC50 for this binder: D[dA]H[dF]RW[Orn]-NH2 (lactam 1-7; also: residues 1-2 joined in a hydantoin ring (C(O))) [c[Hydantoin(C(O)-(Asp-D-Ala))-His-D-Phe-Arg-Trp-Orn]-NH2]
[out] 4.5

[in] Look up cAMP EC50 for this binder: D[dA]H[dF]RW[Dap]-NH2 (lactam 1-7; also: residues 1-2 joined in a hydantoin ring (C(O))) [c[Hydantoin(C(O)-(Asp-D-Ala))-His-D-Phe-Arg-Trp-Dap]-NH2]
[out] 2.12

[in] Look up cAMP EC50 for this binder: [dF]CH[d(Et)Tyr]RW[βAla][dC]T-NH2 (disulfide 2-8) [D-Phe-c(Cys-His-D-(Et)Tyr-Arg-Trp-β-Ala-D-Cys)-Thr-NH2]
[out] 0.11
